Attribution: patent US20090156577A1

System: pathogenic bacteria
PROTOCOL_NOTES: MIC by microdilution broth method (NCCLS M7-A4), in vitro antibacterial activity
Type: cell-based
DETAILS: Streptococcus pneumoniae, Organism B: fluoroquinolone-resistant clinical isolate of Streptococcus pneumoniae (QRDR amino acid substitutions)
Structures can show the parent of a compound that is named as a salt.
Returns: string. Value is Yes if measured MIC is below 8 µg/mL, and No if it is greater than or equal to it.

CC1(C)CN(c2nc3c(cc2F)c(=O)c(C(=O)O)cn3C2CC2)CCC1=C(F)CN [Compound 175] = Yes
NCC(F)=C1CN(c2cc3c(cc2F)c(=O)c(C(=O)O)cn3C2CC2)C1 [Compound 272] = Yes
COc1c(N2CCC(=CCN)CC2)c(F)cc2c(=O)c(C(=O)O)cn(C3CC3)c12 [Compound 212] = Yes
NC/C(F)=C1\CCCN(c2nc3c(cc2F)c(=O)c(C(=O)O)cn3C2CC2)C1 [Compound 374] = Yes
N#CC(CN)=C1CCN(c2nc3c(cc2F)c(=O)c(C(=O)O)cn3C2CC2)CC1 [Compound 283] = Yes

Item NC/C(F)=C1/CCCN(c2c(F)cc3c(=O)c(C(=O)O)cn(C4CC4)c3c2OCF)C1 [Compound 457] : MIC beneath 8 µg/mL, strictly?
Yes

Item COc1c(N2CCC/C(=C(\Cl)CN)C2)c(F)cc2c(=O)c(C(=O)O)cn(C3CC3)c12 [Compound 261, Trifluoroacetic Acid Salt] : MIC beneath 8 µg/mL, strictly?
Yes

Item NCC(F)=C1CN(c2c(F)cc3c(=O)c(C(=O)O)cn(-c4nc(N)c(F)cc4F)c3c2Cl)C1 [Compound 269] : MIC beneath 8 µg/mL, strictly?
Yes

Item NC/C(F)=C1/CCCN(c2c(F)cc3c(=O)c(C(=O)O)cn(-c4nc(N)c(F)cc4F)c3c2Cl)C1 [Compound 358, Trifluoroacetate] : MIC beneath 8 µg/mL, strictly?
No

Item C=CCC(CN)=C1CCN(c2c(F)cc3c(=O)c(C(=O)O)cn(C4CC4)c3c2OC)CC1 [Compound 203] : MIC beneath 8 µg/mL, strictly?
Yes

Item COc1c(N2CCC/C(=C(\Cl)CN)C2)c(F)cc2c(=O)c(C(=O)O)cn([C@@H]3C[C@@H]3F)c12 [Compound 407] : MIC beneath 8 µg/mL, strictly?
Yes
